B1: tRNA (parent)
chain: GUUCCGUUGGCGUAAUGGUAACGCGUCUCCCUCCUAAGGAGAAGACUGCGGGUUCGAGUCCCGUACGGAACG

variants of: B1; test: yeast fitness relative to wild type (ratio to wild type); higher = fitter; tRNA-Arg(CCU), competitive growth, 37 C, YPD
This sample holds only a part of the variants without activity.
I'd be grateful if you could share measured yeast fitness for these entries.
Field format: numeric only.

# variant C33U A36C A40U ; its yeast fitness = 0.609

# variant C30A U35C U59C G63A ; its yeast fitness = 0.584

# variant A15C U59G ; its yeast fitness = 0.673

# variant C30G A43U ; its yeast fitness = 0.635

# variant A36G A42C U47C ; its yeast fitness = 0.687

# variant C4A A20G ; its yeast fitness = 0.859

# variant G25C C27U C61G ; its yeast fitness = 0.502

# variant C33A A36U ; its yeast fitness = 0.615

# variant G48A C55U ; its yeast fitness = 0.661

# variant C4A C33U ; its yeast fitness = 0.754

# variant G9C C27U G58C ; its yeast fitness = 0.639

# variant U3A A36G G68A A70C ; its yeast fitness = 0.566

# variant U16C G51A ; its yeast fitness = 0.633

# variant A15G U26A A45G C60U C62A ; its yeast fitness = 0.562

# variant U35C G41A A45U ; its yeast fitness = 0.664

# variant C5G A20C U54A ; its yeast fitness = 0.616

# variant A42C G48C A70U ; its yeast fitness = 0.666

# variant U3A A36U A43G G52C G63A G67U A70C ; its yeast fitness = 0.557

# variant G6A A14G A42G ; its yeast fitness = 0.549

# variant U8A G10U C22U A37G ; its yeast fitness = 0.511

# variant G51A A70G ; its yeast fitness = 0.85

# variant A21G U47G ; its yeast fitness = 0.525

# variant A57C A70G ; its yeast fitness = 0.664

# variant C11A G44C G56A C66U ; its yeast fitness = 0.552

# variant C11G C27U U28A ; its yeast fitness = 0.537

# variant C4U C5G C66U ; its yeast fitness = 0.564

# variant G23U A57U ; its yeast fitness = 0.614

# variant G44C A69C ; its yeast fitness = 0.85

# variant C22U A36C A65G ; its yeast fitness = 0.564
